Reference for the values: ChEMBL document CHEMBL1961873

system tested: Protein kinase C gamma type (Homo sapiens);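 note: each value is an averaged percent inhibition of the enzyme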
condition set: at 1 µM
Tag: satisfied if measured inhibition is not below 3%, not satisfied if it is.

Completed entries (count: 4):
cpd smiles	system tested	qualitative label
CCn1c(-c2nonc2N)nc2c(C#CC(C)(C)O)nc(CN3CCCC3)cc21	Protein kinase C gamma type (Homo sapiens)	satisfied
Fc1cccc(COc2ccc(Nc3ncnc4cc(-c5ccc[nH]5)sc34)cc2Cl)c1	Protein kinase C gamma type (Homo sapiens)	not satisfied
NCc1ccc(-c2nc(-c3ccc(Cl)c(O)c3)c(-c3ccncc3)[nH]2)cc1	Protein kinase C gamma type (Homo sapiens)	not satisfied
CCn1c(-c2nonc2N)nc2ccncc21	Protein kinase C gamma type (Homo sapiens)	satisfied

Would you kindly look at the next entry?
Problem: Could you please find out whether CCc1cccc(NC(=O)Nc2ccc(Oc3ccc4nc(NC(=O)OC)[nH]c4c3)cc2)c1 has inhibition that meets 3% or exceeds it?
Result: not satisfied
